Molecular target: T1, human IL-12RB2 with C-terminal HA tag, transiently expressed on HEK-293T cells (human, UniProt Q99665 24-862)
T1 construct: whole, on cells; also called human IL-12Rβ2
T1 sequence (looked up): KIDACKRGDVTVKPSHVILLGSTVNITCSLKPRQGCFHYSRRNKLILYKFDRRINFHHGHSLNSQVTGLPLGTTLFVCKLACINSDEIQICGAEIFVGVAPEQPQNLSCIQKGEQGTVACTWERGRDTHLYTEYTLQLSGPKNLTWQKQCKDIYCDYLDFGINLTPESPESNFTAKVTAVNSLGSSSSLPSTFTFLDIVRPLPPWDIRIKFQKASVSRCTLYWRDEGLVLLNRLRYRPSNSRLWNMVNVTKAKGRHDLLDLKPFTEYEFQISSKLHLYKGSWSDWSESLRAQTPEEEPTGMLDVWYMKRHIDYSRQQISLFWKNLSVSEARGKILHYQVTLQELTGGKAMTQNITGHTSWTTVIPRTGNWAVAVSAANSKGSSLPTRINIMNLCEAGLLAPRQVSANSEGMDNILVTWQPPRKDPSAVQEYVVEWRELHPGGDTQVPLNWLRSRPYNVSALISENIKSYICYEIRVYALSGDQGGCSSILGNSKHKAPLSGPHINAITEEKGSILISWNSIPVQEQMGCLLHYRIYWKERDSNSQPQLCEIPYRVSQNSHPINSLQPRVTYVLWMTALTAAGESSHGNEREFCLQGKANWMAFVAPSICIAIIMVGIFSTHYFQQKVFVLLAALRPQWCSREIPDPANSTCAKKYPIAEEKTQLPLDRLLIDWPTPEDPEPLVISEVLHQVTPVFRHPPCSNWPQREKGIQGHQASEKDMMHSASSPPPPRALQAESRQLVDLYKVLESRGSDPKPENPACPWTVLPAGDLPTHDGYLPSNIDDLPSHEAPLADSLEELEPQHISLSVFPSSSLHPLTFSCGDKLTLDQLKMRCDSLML
Assay: FACS, periplasmic extract, HEK-293T
Metric: FOB (fold)

- VHH307B2 (VHH) VHH: QVQLVESGGGLVQAGGSLRLSCAASGRTFSRYIMGWFRQATGKEREFVAAISWSGLSTHYADSVQGRFTISRDNAENTVYLQMNSLKPEDTAVYYCAADRHWETRLLPREYDYWGQGTQVTVSS: 1.95
- VHH185B2 (VHH) VHH: QVQLVESGGGLVQAGGSLRLSCAASGRTFSRYRMGWFRQAPGKEREFVAAITKSGATTYDADSVKGRFTISRDNAKNTLYLQMNSLKPEDTAVYYCAASYHSNWWPKNADEYAYWGQGTQVTVSS: 2.71
